# System: NCI-H661
# Test description: relative viability (nuclei count vs DMSO), 5 days (fraction); higher = more cells survive
# Experimental setup: first compound 0.08 µM
Measured attribute: relative viability

>  <Compound>
CCCCCCCCCCCC1=C(O)C(=O)C=C(O)C1=O [Embelin] + CS(=O)(=O)N1CCN(Cc2cc3nc(-c4cccc5[nH]ncc45)nc(N4CCOCC4)c3s2)CC1 [Pictilisib] (partner 1 µM)

>  <Measured attribute>
relative viability

>  <Readout number>
0.41

$$$$
>  <Compound>
CCCCCCCCCCCC1=C(O)C(=O)C=C(O)C1=O [Embelin] + Nc1ncn([C@H]2C[C@H](O)[C@@H](CO)O2)c(=O)n1 [Decitabine] (partner 2 µM)

>  <Measured attribute>
relative viability

>  <Readout number>
0.565

$$$$
>  <Compound>
CCCCCCCCCCCC1=C(O)C(=O)C=C(O)C1=O [Embelin] + Nc1nc2[nH]cc(CCc3ccc(C(=O)N[C@@H](CCC(=O)O)C(=O)O)cc3)c2c(=O)[nH]1 [Pemetrexed] (partner 0.2 µM)

>  <Measured attribute>
relative viability

>  <Readout number>
0.953

$$$$

---

Item-by-item account of relative viability
# Tested on: EBC-1
# Test description: relative viability (nuclei count vs DMSO), 5 days (fraction); higher = more cells survive
# Experimental setup: first compound 0.1265 µM
Measured attribute: relative viability

>  <Compound>
C[C@@H]1CN(CC(=O)Nc2ccc3c(c2)Cc2cccc(-c4cc(=O)cc(N5CCOCC5)o4)c2S3)C[C@H](C)O1 + Cc1nc(NC(=O)N2CCC[C@H]2C(N)=O)sc1-c1ccnc(C(C)(C)C(F)(F)F)c1 [Alpelisib] (partner 2 µM)

>  <Measured attribute>
relative viability

>  <Readout number>
0.826

$$$$
>  <Compound>
COc1cc(N2CCC(C(N)=O)CC2)ccc1Nc1nc(N)c(Cl)c(Nc2ccccc2S(=O)(=O)C(C)C)n1 [HG-5-88-01] + C[C@@H](Oc1cc(-c2cnn(C3CCNCC3)c2)cnc1N)c1c(Cl)ccc(F)c1Cl [Crizotinib] (partner 1 µM)

>  <Measured attribute>
relative viability

>  <Readout number>
0.187

$$$$
>  <Compound>
Clc1ccc(Nc2nnc(Cc3ccncc3)c3ccccc23)cc1 [Vatalanib] + O=C(c1cc(Cc2n[nH]c(=O)c3ccccc23)ccc1F)N1CCN(C(=O)C2CC2)CC1 [Olaparib] (partner 8 µM)

>  <Measured attribute>
relative viability

>  <Readout number>
0.59

$$$$
>  <Compound>
COc1cc(N2CCC(C(N)=O)CC2)ccc1Nc1nc(N)c(Cl)c(Nc2ccccc2S(=O)(=O)C(C)C)n1 [HG-5-88-01] + Cc1nc(NC(=O)N2CCC[C@H]2C(N)=O)sc1-c1ccnc(C(C)(C)C(F)(F)F)c1 [Alpelisib] (partner 2 µM)

>  <Measured attribute>
relative viability

>  <Readout number>
0.98

$$$$
>  <Compound>
C[C@@H]1CN(CC(=O)Nc2ccc3c(c2)Cc2cccc(-c4cc(=O)cc(N5CCOCC5)o4)c2S3)C[C@H](C)O1 + CC(C)C[C@H](NC(=O)[C@H](Cc1ccccc1)NC(=O)c1cnccn1)B(O)O [Bortezomib] (partner 0.002 µM)

>  <Measured attribute>
relative viability

>  <Readout number>
0.535

$$$$
>  <Compound>
C[C@@H]1CN(CC(=O)Nc2ccc3c(c2)Cc2cccc(-c4cc(=O)cc(N5CCOCC5)o4)c2S3)C[C@H](C)O1 + CS(=O)(=O)N1CCN(Cc2cc3nc(-c4cccc5[nH]ncc45)nc(N4CCOCC4)c3s2)CC1 [Pictilisib] (partner 1 µM)

>  <Measured attribute>
relative viability

>  <Readout number>
0.412

$$$$
>  <Compound>
COc1cc(N2CCC(C(N)=O)CC2)ccc1Nc1nc(N)c(Cl)c(Nc2ccccc2S(=O)(=O)C(C)C)n1 [HG-5-88-01] + C[C@]1(O)C[C@@H](c2nc(-c3ccc4ccc(-c5ccccc5)nc4c3)c3c(N)nccn32)C1 [Linsitinib] (partner 1 µM)

>  <Measured attribute>
relative viability

>  <Readout number>
0.373

$$$$
>  <Compound>
Clc1ccc(Nc2nnc(Cc3ccncc3)c3ccccc23)cc1 [Vatalanib] + C[C@@H](Oc1cc(-c2cnn(C3CCNCC3)c2)cnc1N)c1c(Cl)ccc(F)c1Cl [Crizotinib] (partner 1 µM)

>  <Measured attribute>
relative viability

>  <Readout number>
0.178

$$$$
>  <Compound>
COc1cc(N2CCC(C(N)=O)CC2)ccc1Nc1nc(N)c(Cl)c(Nc2ccccc2S(=O)(=O)C(C)C)n1 [HG-5-88-01] + CC1(C)CCC(c2ccc(Cl)cc2)=C(CN2CCN(c3ccc(C(=O)NS(=O)(=O)c4ccc(N[C@H](CCN5CCOCC5)CSc5ccccc5)c(S(=O)(=O)C(F)(F)F)c4)cc3)CC2)C1 [Navitoclax] (partner 0.5 µM)

>  <Measured attribute>
relative viability

>  <Readout number>
0.457

$$$$
>  <Compound>
C[C@@H]1CN(CC(=O)Nc2ccc3c(c2)Cc2cccc(-c4cc(=O)cc(N5CCOCC5)o4)c2S3)C[C@H](C)O1 + CC1(C)CCC(c2ccc(Cl)cc2)=C(CN2CCN(c3ccc(C(=O)NS(=O)(=O)c4ccc(N[C@H](CCN5CCOCC5)CSc5ccccc5)c(S(=O)(=O)C(F)(F)F)c4)cc3)CC2)C1 [Navitoclax] (partner 0.5 µM)

>  <Measured attribute>
relative viability

>  <Readout number>
0.432

$$$$

---

Quick reference for relative viability among some compounds
# Tested on: NCI-H661
# Test description: relative viability (nuclei count vs DMSO), 5 days (fraction); higher = more cells survive
# Experimental setup: first compound 0.3162 µM
Measured attribute: relative viability

>  <Compound>
CC(C)Oc1cc(Nc2nc(N[C@@H](C)c3ccc(F)cn3)ncc2Cl)n[nH]1 [AZ23] + O=C(c1cc(Cc2n[nH]c(=O)c3ccccc23)ccc1F)N1CCN(C(=O)C2CC2)CC1 [Olaparib] (partner 8 µM)

>  <Readout number>
0.738

$$$$
>  <Compound>
CC(C)Oc1cc(Nc2nc(N[C@@H](C)c3ccc(F)cn3)ncc2Cl)n[nH]1 [AZ23] + CC(=O)c1c(C)c2cnc(Nc3ccc(N4CCNCC4)cn3)nc2n(C2CCCC2)c1=O [Palbociclib] (partner 0.5 µM)

>  <Readout number>
0.349

$$$$
>  <Compound>
CC(C)Oc1cc(Nc2nc(N[C@@H](C)c3ccc(F)cn3)ncc2Cl)n[nH]1 [AZ23] + C[C@@H](Oc1cc(-c2cnn(C3CCNCC3)c2)cnc1N)c1c(Cl)ccc(F)c1Cl [Crizotinib] (partner 1 µM)

>  <Readout number>
1.11

$$$$
>  <Compound>
CC(C)Oc1cc(Nc2nc(N[C@@H](C)c3ccc(F)cn3)ncc2Cl)n[nH]1 [AZ23] + Cc1nc(NC(=O)N2CCC[C@H]2C(N)=O)sc1-c1ccnc(C(C)(C)C(F)(F)F)c1 [Alpelisib] (partner 2 µM)

>  <Readout number>
0.908

$$$$
>  <Compound>
CC(C)Oc1cc(Nc2nc(N[C@@H](C)c3ccc(F)cn3)ncc2Cl)n[nH]1 [AZ23] + C[C@]1(O)C[C@@H](c2nc(-c3ccc4ccc(-c5ccccc5)nc4c3)c3c(N)nccn32)C1 [Linsitinib] (partner 1 µM)

>  <Readout number>
0.623

$$$$
>  <Compound>
CC(C)Oc1cc(Nc2nc(N[C@@H](C)c3ccc(F)cn3)ncc2Cl)n[nH]1 [AZ23] + COc1cc2c(Oc3ccc(NC(=O)C4(C(=O)Nc5ccc(F)cc5)CC4)cc3F)ccnc2cc1OCCCN1CCOCC1 [Foretinib] (partner 0.25 µM)

>  <Readout number>
1

$$$$

---

# Test system: ChaGo-K-1
# Test description: relative viability (nuclei count vs DMSO), 5 days (fraction); higher = more cells survive
# Experimental setup: first compound 2.53 µM
In this section, each of the compounds is paired with its reported relative viability.
Measured attribute: relative viability

>  <Compound>
CCCCCCCCCCCC1=C(O)C(=O)C=C(O)C1=O [Embelin] + Nc1ncn([C@H]2C[C@H](O)[C@@H](CO)O2)c(=O)n1 [Decitabine] (partner 2 µM)

>  <Result>
0.507

$$$$
>  <Compound>
CCCCCCCCCCCC1=C(O)C(=O)C=C(O)C1=O [Embelin] + O=C(CCCCCCC(=O)Nc1ccccc1)NO [Vorinostat] (partner 1 µM)

>  <Result>
0.871

$$$$
>  <Compound>
CCCCCCCCCCCC1=C(O)C(=O)C=C(O)C1=O [Embelin] + CCNC(=O)c1noc(-c2cc(C(C)C)c(O)cc2O)c1-c1ccc(CN2CCOCC2)cc1 [Luminespib] (partner 0.01 µM)

>  <Result>
0.776

$$$$
>  <Compound>
CCCCCCCCCCCC1=C(O)C(=O)C=C(O)C1=O [Embelin] + CC(C)C[C@H](NC(=O)[C@H](Cc1ccccc1)NC(=O)c1cnccn1)B(O)O [Bortezomib] (partner 0.002 µM)

>  <Result>
0.946

$$$$
>  <Compound>
CCCCCCCCCCCC1=C(O)C(=O)C=C(O)C1=O [Embelin] + N=C(N)NC(=N)NCCc1ccccc1 [Phenformin] (partner 250 µM)

>  <Result>
0.586

$$$$
>  <Compound>
CCCCCCCCCCCC1=C(O)C(=O)C=C(O)C1=O [Embelin] + Cc1cc(Nc2cc(N3CCN(C)CC3)nc(Sc3ccc(NC(=O)C4CC4)cc3)n2)n[nH]1 [Tozasertib] (partner 0.1 µM)

>  <Result>
0.212

$$$$
